# assay.procedure: Human HepG2 cell viability assay in 384 well format
# Type: toxicity, cell-based
# Design: dose 125 nL, time 70.5 hour; concentration not given beside the values
# test.context: HepG2 cells, read-out: Inhibition
Each entry below carries its recorded cytotoxicity at 70.5 h.
experimental.endpoint: cytotoxicity at 70.5 h (%)

[
  {
    "molecule": "CC(C)Oc1ccc(Cl)c(C(=O)N2CCN(CCO)CC2)n1",
    "experimental.endpoint": "cytotoxicity at 70.5 h",
    "numeric.readout": -12.1
  },
  {
    "molecule": "Cc1cc2c(=O)n3c(nc2s1)CCN(Cc1cnc(C(C)C)nc1)CC3",
    "experimental.endpoint": "cytotoxicity at 70.5 h",
    "numeric.readout": -14.8
  },
  {
    "molecule": "COc1ccccc1C(NC(=O)NC1CC1)c1noc(C)n1 (configuration not stated)",
    "experimental.endpoint": "cytotoxicity at 70.5 h",
    "numeric.readout": -9
  },
  {
    "molecule": "CC(=O)N1CCC(c2nnc3ccc(C(=O)NCC(C)C)cn23)C1 (configuration not stated)",
    "experimental.endpoint": "cytotoxicity at 70.5 h",
    "numeric.readout": -12.8
  },
  {
    "molecule": "NC(=O)c1ccc(N2CCN(CCCc3cn[nH]c3)CC2)cc1",
    "experimental.endpoint": "cytotoxicity at 70.5 h",
    "numeric.readout": -0.688
  },
  {
    "molecule": "CCOc1nnc(CN2CCN(CCOC)CC2)s1",
    "experimental.endpoint": "cytotoxicity at 70.5 h",
    "numeric.readout": 16.4
  },
  {
    "molecule": "COCCCn1ccc(NS(=O)(=O)c2cc(F)c(C)cc2F)n1",
    "experimental.endpoint": "cytotoxicity at 70.5 h",
    "numeric.readout": -12.2
  },
  {
    "molecule": "CN1CCN(C(=O)c2cc(-c3ccco3)cs2)CC1",
    "experimental.endpoint": "cytotoxicity at 70.5 h",
    "numeric.readout": -20.5
  },
  {
    "molecule": "CC(C)CN1C[C@@H]2OCC(=O)N(Cc3nccn3C)[C@@H]2C1",
    "experimental.endpoint": "cytotoxicity at 70.5 h",
    "numeric.readout": 14
  },
  {
    "molecule": "CC(=O)N1CCC(C)(c2cc(C(=O)NCC(C)(C)C)nc(C)n2)CC1",
    "experimental.endpoint": "cytotoxicity at 70.5 h",
    "numeric.readout": 9.62
  },
  {
    "molecule": "COc1ccc(C(=O)N2CCCCC2c2ccccn2)c(OC)n1 (configuration not stated)",
    "experimental.endpoint": "cytotoxicity at 70.5 h",
    "numeric.readout": 15.4
  },
  {
    "molecule": "COc1ccc(N2CCC(NC(=O)c3sccc3C)CC2)cc1",
    "experimental.endpoint": "cytotoxicity at 70.5 h",
    "numeric.readout": 18.3
  },
  {
    "molecule": "Cc1ccc(C(=O)N2CCc3nc4c(C)csc4c(=O)n3CC2)cn1",
    "experimental.endpoint": "cytotoxicity at 70.5 h",
    "numeric.readout": -4.08
  },
  {
    "molecule": "Cc1ccc(CNc2ccc(C(=O)N3CCNC(=O)C3)cn2)cc1",
    "experimental.endpoint": "cytotoxicity at 70.5 h",
    "numeric.readout": 4.12
  },
  {
    "molecule": "CC(C)n1cnnc1Cn1ccc2ncccc2c1=O",
    "experimental.endpoint": "cytotoxicity at 70.5 h",
    "numeric.readout": 1
  },
  {
    "molecule": "COc1ccc(CN2CCC3(CC2)CCN(c2cnn(C)c2)C3=O)cc1",
    "experimental.endpoint": "cytotoxicity at 70.5 h",
    "numeric.readout": -6.09
  },
  {
    "molecule": "CCc1nc(CCNS(=O)(=O)c2cccc(C(=O)N(C)CC)c2)cs1",
    "experimental.endpoint": "cytotoxicity at 70.5 h",
    "numeric.readout": -16
  },
  {
    "molecule": "CS(=O)(=O)N1CCN(C(=O)c2cccc(Cl)c2)CC2(CNC(=O)C2)C1 (configuration not stated)",
    "experimental.endpoint": "cytotoxicity at 70.5 h",
    "numeric.readout": -0.473
  },
  {
    "molecule": "O=C(c1cccc(Cl)c1)C1CCCN(c2nnc(C3CCC3)o2)C1 (configuration not stated)",
    "experimental.endpoint": "cytotoxicity at 70.5 h",
    "numeric.readout": 5.93
  },
  {
    "molecule": "CC(NC(=O)N1CCC1)c1ccc(S(N)(=O)=O)cc1 (configuration not stated)",
    "experimental.endpoint": "cytotoxicity at 70.5 h",
    "numeric.readout": -7.27
  },
  {
    "molecule": "Cc1csc(NC(=O)CN(C)CC2CCCN2c2cccnn2)n1 (configuration not stated)",
    "experimental.endpoint": "cytotoxicity at 70.5 h",
    "numeric.readout": 3.61
  },
  {
    "molecule": "O=C(CC1COCCN1)NCCc1noc(-c2ccccc2)n1 (configuration not stated)",
    "experimental.endpoint": "cytotoxicity at 70.5 h",
    "numeric.readout": -2.33
  },
  {
    "molecule": "N#CCCn1cnc2c(Br)cccc2c1=O",
    "experimental.endpoint": "cytotoxicity at 70.5 h",
    "numeric.readout": -14.7
  },
  {
    "molecule": "CCc1nc(C)cc(N2CCN(C(=O)[C@@H]3C[C@@H]4C=C[C@H]3C4)CC2)n1",
    "experimental.endpoint": "cytotoxicity at 70.5 h",
    "numeric.readout": -7.28
  },
  {
    "molecule": "Cc1cnn(CC2CN(c3nnc(C)c(C)c3C#N)CCO2)c1 (configuration not stated)",
    "experimental.endpoint": "cytotoxicity at 70.5 h",
    "numeric.readout": -3.86
  },
  {
    "molecule": "Cc1ccc2[nH]c(C3CCN(C)CC3)nc2c1",
    "experimental.endpoint": "cytotoxicity at 70.5 h",
    "numeric.readout": 12.7
  },
  {
    "molecule": "O=C(CC1CC2(CCN(CC3CC3)CC2)c2ccccc21)NC1CCC1 (configuration not stated)",
    "experimental.endpoint": "cytotoxicity at 70.5 h",
    "numeric.readout": -2.68
  },
  {
    "molecule": "CC(C)C(=O)N1CCN(c2ncnc3cc4c(cc23)OCCO4)CC1",
    "experimental.endpoint": "cytotoxicity at 70.5 h",
    "numeric.readout": -1.97
  },
  {
    "molecule": "CCc1noc(CN2CCCC(Cn3nc(C)nc3C)C2)n1 (configuration not stated)",
    "experimental.endpoint": "cytotoxicity at 70.5 h",
    "numeric.readout": -12.1
  },
  {
    "molecule": "CC[C@@H]1N(Cc2ccoc2)CCC[C@]12CCC(=O)N2CCOC",
    "experimental.endpoint": "cytotoxicity at 70.5 h",
    "numeric.readout": -5.78
  },
  {
    "molecule": "CCCn1cc(NC(=O)NCC2CCS(=O)(=O)C2)nn1 (configuration not stated)",
    "experimental.endpoint": "cytotoxicity at 70.5 h",
    "numeric.readout": -9.78
  },
  {
    "molecule": "COc1ccc(C(=O)N2C[C@@H](NC(=O)N(C)C)[C@H](C(C)C)C2)c(OC)n1",
    "experimental.endpoint": "cytotoxicity at 70.5 h",
    "numeric.readout": -11.2
  },
  {
    "molecule": "NS(=O)(=O)c1cnc(NCC2(c3ccccc3)CCC2)s1",
    "experimental.endpoint": "cytotoxicity at 70.5 h",
    "numeric.readout": -2.17
  },
  {
    "molecule": "O=C(c1ccc(CN2CC(n3cccn3)C2)cc1)N1CCCC1",
    "experimental.endpoint": "cytotoxicity at 70.5 h",
    "numeric.readout": -0.354
  },
  {
    "molecule": "CCN(C)c1ccc(C(=O)NCCCc2ccccn2)cn1",
    "experimental.endpoint": "cytotoxicity at 70.5 h",
    "numeric.readout": -4.13
  },
  {
    "molecule": "CN(Cc1cccc(F)c1)C(=O)CS(=O)(=O)Cc1ccc(Cl)c(Cl)c1",
    "experimental.endpoint": "cytotoxicity at 70.5 h",
    "numeric.readout": -11.2
  },
  {
    "molecule": "c1ccc(CN2CCc3ncnc(C4CC4)c3CC2)cc1",
    "experimental.endpoint": "cytotoxicity at 70.5 h",
    "numeric.readout": 26.7
  },
  {
    "molecule": "CNc1cc(C2CCN2c2ncccn2)nc(C)n1 (configuration not stated)",
    "experimental.endpoint": "cytotoxicity at 70.5 h",
    "numeric.readout": -6.05
  },
  {
    "molecule": "CCN(Cc1cnc(-c2ccccn2)nc1)C1CCS(=O)(=O)C1 (configuration not stated)",
    "experimental.endpoint": "cytotoxicity at 70.5 h",
    "numeric.readout": 5
  },
  {
    "molecule": "Cc1noc(C)c1-c1cncc(C2CCCN2Cc2ncccc2F)n1 (configuration not stated)",
    "experimental.endpoint": "cytotoxicity at 70.5 h",
    "numeric.readout": -6.52
  },
  {
    "molecule": "CC(C)C(=O)N1CCN(c2cc(N(C)C)cnn2)CC1",
    "experimental.endpoint": "cytotoxicity at 70.5 h",
    "numeric.readout": -5.3
  },
  {
    "molecule": "Cc1c(Cl)c(C(=O)N2CC[C@H](N3CCOCC3)[C@H](CCCO)C2)nn1C",
    "experimental.endpoint": "cytotoxicity at 70.5 h",
    "numeric.readout": 3.03
  },
  {
    "molecule": "O=C(NC1CCCN(CCCc2ccccc2)C1)C1=CCCCC1 (configuration not stated)",
    "experimental.endpoint": "cytotoxicity at 70.5 h",
    "numeric.readout": -0.678
  },
  {
    "molecule": "CN1CCOC(CN(C(=O)Cc2ccccc2F)c2nccs2)C1 (configuration not stated)",
    "experimental.endpoint": "cytotoxicity at 70.5 h",
    "numeric.readout": 20.9
  },
  {
    "molecule": "COc1c(CNCc2cccnc2N2CCOCC2)c(C)nn1C",
    "experimental.endpoint": "cytotoxicity at 70.5 h",
    "numeric.readout": 1.9
  },
  {
    "molecule": "CC(NC(=O)c1cc2n(n1)CCCN(C(C)C)C2)c1cn2ccsc2n1 (configuration not stated)",
    "experimental.endpoint": "cytotoxicity at 70.5 h",
    "numeric.readout": -16.5
  },
  {
    "molecule": "COCC(=O)N[C@@H]1CN(Cc2ccc3c(c2)OCCO3)C[C@H]1O",
    "experimental.endpoint": "cytotoxicity at 70.5 h",
    "numeric.readout": 9.74
  }
]
